B1: Azoarcus group I ribozyme (parent)
chain: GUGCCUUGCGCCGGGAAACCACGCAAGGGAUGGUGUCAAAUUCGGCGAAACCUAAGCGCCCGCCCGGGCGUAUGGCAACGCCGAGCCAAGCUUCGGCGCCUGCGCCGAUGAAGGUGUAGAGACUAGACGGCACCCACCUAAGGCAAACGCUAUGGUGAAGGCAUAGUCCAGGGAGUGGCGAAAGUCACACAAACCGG

Variants of: B1
Assay Procedure: reverse-splicing fitness (ratio to wild type); higher = more active; in vitro selection; Mg2+ level not given
Note to self: values exactly at 0.006 are T. So reverse-splicing fitness at or above 0.006 is T, below is F.

C150U C169G U176C
T
C82U A111U A120U A145G C150G C169A U176C
T
C82U A111G A145C C150G C169G U176G
F

Now turn to the next variant.
Ask | Could you verify whether the entry C82U A111U A120U C150G U176G shows reverse-splicing fitness of no less than 0.006?
Reply | F
